Data origin, for the record: PubChem BioAssay (Tox21)

- Experimental System: Cytochrome P450 2C19 (Homo sapiens)
- Experiment Summary: Cytochrome P450 Family 2 Subfamily C Member 19 (CYP2C19) small molecule antagonists: luciferase reporter qHTS assay (AID 1671197); note: nearly all actives have a fitted effect of over 65% in size; note: potency is the fitted concentration of half-maximal effect
- Test Settings: P450-Glo CYP2C19 enzyme, luciferin luminescence, 1 h; series mostly up to 115 µM
Results filed as inconclusive are left out. Calls of active or inactive are those of the source. Calls come from the whole dose curve; as a rule, active = well fitted inhibition curve with a large enough effect in the repeat runs; inconclusive = weak or mixed curves; inactive = no such curve, though single readings can be large or run the other way.
Metric Name: Potency

Look over these answered cases.
Compound: CCCCCCC[CH2][Sn]([Cl])([Cl])[CH2]CCCCCCC
Experimental System: Cytochrome P450 2C19 (Homo sapiens)
Potency: inactive
--
Compound: C=CC(=C)C
Experimental System: Cytochrome P450 2C19 (Homo sapiens)
Potency: inactive
--
Compound: O=c1c2ccccc2c(=O)c2c1cc(Cl)c1[nH]c3c([nH]c12)c(Cl)cc1c(=O)c2ccccc2c(=O)c13
Experimental System: Cytochrome P450 2C19 (Homo sapiens)
Potency: inactive
--
Compound: O=NN(CCO)CCO
Experimental System: Cytochrome P450 2C19 (Homo sapiens)
Potency: 78.4 µM (active)

Look at this compound and give its reported Potency. C[C@]12Cc3cn[nH]c3C[C@@H]1CC[C@@H]1[C@@H]2CC[C@@]2(C)[C@H]1CC[C@]2(C)O
0.776 µM (active)

Further, for CNN ?
inactive

Another: CCCCCCCc1ccc(O)cc1
20 µM (active)

Now consider CC(C)Br and answer again.
35.7 µM (active)

Can you check C[C@]12CC[C@H]3[C@@H](CCC4=CC(=O)CC[C@@H]43)[C@@H]1CC[C@@H]2OC(=O)CCc1ccco1 next?
inactive

// query: COc1ccc2c3c1O[C@H]1[C@H](O)CC[C@H]4[C@@H](C2)N(C)CC[C@@]341
inactive

Try CC(Cc1ccc2c(c1)OCO2)NO (configuration not stated) next.
48.6 µM (active)

Next: CO/N=C(\C(=O)OC)c1ccccc1CO/N=C(\C)c1cccc(C(F)(F)F)c1
3.56 µM (active)

Next compound: CC(C)C(Nc1ccc(C(F)(F)F)cc1Cl)C(=O)OC(C#N)c1cccc(Oc2ccccc2)c1 (configuration not stated)
9.01 µM (active)

How about CCCCCON=O ?
inactive

Query CCC[CH2][Sn]([CH2]CCC)([O]C(C)=O)[O]C(C)=O next
inactive

For Nc1c(Cl)c(Cl)c(Cl)c(Cl)c1Cl then?
inactive

Consider next the compound C=CCOC(=O)c1ccccc1N in the same way.
25.4 µM (active)

----------
- Experiment Summary: qHTS assay to identify small molecule antagonists of the retinoid-related orphan receptor gamma (ROR-gamma) signaling pathway - cell viability counter screen (AID 1159520); note: nearly all actives have a fitted effect of over 50% in size
- Test Settings: Tet-on RORgamma CHO cells viability, ATP luminescence, 16 h; series mostly up to 92.4 µM
- Protocol: U.S. Tox21 Program National Center for Advancing Translational Sciences [NCATS] NIH Chemical Genomics Center [NCGC] U.S. Environmental Protection Agency [EPA] National Institutes of Environmental Health Sciences [NIEHS] National Toxicology Program [NTP] U.S. Food and Drug Administration [FDA] […] Reporter gene activity was induced using Doxycycline Hyclate and measured after 16 hr incubation. […]
Records with an inconclusive call do not appear. Activity calls are given as the source filed them. Calls follow the shape of the dose curve; as a rule, active = well fitted cell-killing curve with a large enough effect in the repeat runs; inconclusive = weak or mixed curves, or effect the other way; inactive = no such curve, though single readings can be large or run the other way.
Choose the fitting class; nothing outside true (1) = active, false (0) = inactive is accepted.

Called result for [O-][Cl+3]([O-])([O-])O
false (0)

# iterate: Cc1nn(-c2cc(NS(C)(=O)=O)c(Cl)cc2Cl)c(=O)n1C(F)F
false (0)

Try CCN(CC)C(=S)S next.
false (0)

Next record, please: CNC(=O)/C=C(\C)OP(=O)(OC)OC
false (0)

Also Cc1ccc2cc3c(ccc4ccccc43)c3c2c1CC3 ?
false (0)

Then what about the molecule CC1(C)C(C=C(Cl)Cl)C1C(=O)OC(C#N)c1ccc(F)c(Oc2ccccc2)c1 (configuration not stated) ?
false (0)

Please answer likewise for CN1CCc2cc(Cl)c(O)cc2[C@H]2c3ccccc3CC[C@@H]21
false (0)

Can you check CCC(C)Br (configuration not stated) next?
false (0)

Moving on to the next molecule: CCC1COC(Cn2cncn2)(c2ccc(Cl)cc2Cl)O1 (configuration not stated)
false (0)

Moving on to the next molecule: CCN(CC)CCc1c[nH]c2ccccc12
false (0)

Here is the next molecule: N#Cc1sc2c(=O)c3ccccc3c(=O)c=2sc1C#N
true (1)

// same read-out, input: O=c1[nH]c(Cl)c(Cl)cc1Cl
false (0)

Let us now turn to ClC1=C(Cl)[C@]2(Cl)[C@@H]3[C@H]4C[C@H]([C@@H]5O[C@H]45)[C@@H]3[C@@]1(Cl)C2(Cl)Cl
false (0)

Same question, c1ccc2c(c1)cc1ccc3cccc4ccc2c1c34 this time
false (0)

Do the same for CCCCC(CC)COC(=O)OOC(C)(C)C (configuration not stated) please
false (0)

Thanks! And O=[N+]([O-])c1ccccc1-c1ccccc1 ?
false (0)

Follow-up entry: c1ccc(N=NNc2ccccc2)cc1
false (0)

// next record CCNS(=O)(=O)C(F)(F)C(F)(F)C(F)(F)C(F)(F)C(F)(F)C(F)(F)C(F)(F)C(F)(F)F
false (0)

How about this molecule: CN1CCc2cc3c(cc2C1O)OCO3 (configuration not stated)
false (0)

Record: C=CC(=C)C
false (0)

Ok, now O=P(Cl)(Cl)Cl
false (0)

// query: C=CC(=O)[O][Sn]([CH2]CCC)([CH2]CCC)[CH2]CCC
true (1)

Nc1nc(N)nc(Cl)n1 , same question.
false (0)

For C=CCBr then?
false (0)

Now the same for ClCBr
false (0)

Input C#CC1(O)CCCCC1
false (0)

And then CC(=O)[O][Sn]([c]1ccccc1)([c]1ccccc1)[c]1ccccc1 , what is it?
true (1)

Can you check c1ccc2nc(N3CCNCC3)ccc2c1 next?
false (0)

Also need COC(=O)c1ccccc1S(=O)(=O)NC(=O)Nc1nc(C)nc(OC)n1 , thanks.
false (0)

How about this molecule: Nc1ccc(Cl)cc1C(=O)c1ccccc1F
false (0)

Could you do the same for O=C(NC(=O)c1ccccc1Cl)Nc1ccc(OC(F)(F)F)cc1 , please?
false (0)

What would you report for c1cc[n+]2c(c1)-c1cccc[n+]1CC2 ?
false (0)

----------
- Experiment Summary: Caspase-3/7 induction in CHO-K1 cells by small molecules, qHTS cell viability counter screen (AID 1346979); note: nearly all actives have a fitted effect of over 35% in size
- Test Settings: CellTiter-Fluor fluorescence, 17 h; series mostly up to 92.4 µM
Records with an inconclusive call do not appear. The source made the active and inactive calls. The call rests on the fitted dose curve; in most records, active means well fitted cell-killing curve with a large enough effect in the repeat runs; inconclusive means weak or mixed curves, or effect the other way; inactive means no such curve, though single readings can be large or run the other way.
Bench note: report the call from active, inactive

Can you look up the reported call for O.O.O.O.O.O.O.O=S(=O)([O-])[O-].[Co+2] for me?
inactive

Proceed to Oc1ccc([C@H]2CNCc3c2ccc(O)c3O)cc1O
active

Moving on to CCOP(=S)(NC(C)C)Oc1ccccc1C(=O)OC(C)C (centres undefined)
active

Entry to check: Oc1ccc(Cl)c(Cl)c1
active

Next up: COCCC#N
inactive

// repeat for Cc1cccc(Cc2cnc[nH]2)c1C and report
inactive

And for COc1c2c(cc3c1OCO3)CCN(C)C2 ?
inactive

Check CC1CN1 (centres undefined) too.
inactive

Similarly, CC(C)Br ?
inactive

----------
- Experiment Summary: qHTS assay to identify small molecule antagonists of the estrogen receptor beta (ER-beta) signaling pathway - cell viability counter screen (AID 1259382); note: nearly all actives have a fitted effect of over 55% in size; note: potency is the fitted concentration of half-maximal effect
- Test Settings: ER-beta-UAS-bla HEK293T viability, CellTiter-Glo luminescence, 16 h; series mostly up to 92.4 µM
- From the text: U.S. Tox21 Program National Center for Advancing Translational Sciences [NCATS] NIH Chemical Genomics Center [NCGC] U.S. Environmental Protection Agency [EPA] National Institutes of Environmental Health Sciences [NIEHS] National Toxicology Program [NTP] U.S. Food and Drug Administration [FDA] Tox21 Assay Overview: Estrogen receptor (ER), a nuclear hormone receptor, plays an important role in development, metabolic homeostasis and reproduction. […]
Results filed as inconclusive are left out. Active and inactive are the calls of the source. The call rests on the fitted dose curve; in most records, active means well fitted cell-killing curve with a large enough effect in the repeat runs; inconclusive means weak or mixed curves; inactive means flat fitted curve, though single readings scatter.
Metric Name: Potency

Molecule: c1cc[n+]2c(c1)-c1cccc[n+]1CC2
Metric Name: Potency
Value Observed: inactive

Molecule: CNC(=O)O/N=C(\C)C(C)S(C)(=O)=O (stereo unspecified)
Metric Name: Potency
Value Observed: inactive

Molecule: O=C(O)[C@H](O)[C@@H](O)C(=O)O
Metric Name: Potency
Value Observed: inactive

Molecule: Clc1ccc(C2(Cn3cncn3)OCCO2)c(Cl)c1
Metric Name: Potency
Value Observed: inactive

Molecule: C=C(C)C(=O)[O][Sn]([CH2]CCC)([CH2]CCC)[CH2]CCC
Metric Name: Potency
Value Observed: 1.54 µM (active)

Molecule: Cc1ccn2nc(S(=O)(=O)Nc3c(F)cccc3F)nc2n1
Metric Name: Potency
Value Observed: inactive

Molecule: C=CC(=O)[O][Sn]([CH2]CCC)([CH2]CCC)[CH2]CCC
Metric Name: Potency
Value Observed: 3.06 µM (active)

Molecule: O=[N+]([O-])c1cc(C(F)(F)F)c(Cl)c([N+](=O)[O-])c1Nc1ncc(C(F)(F)F)cc1Cl
Metric Name: Potency
Value Observed: 8.63 µM (active)

Molecule: CCN(CC)Cc1nccn1-c1ccc([N+](=O)[O-])cc1C(=O)c1ccccc1Cl
Metric Name: Potency
Value Observed: inactive

Molecule: COP(=O)(OC)O/C(=C\Cl)c1cc(Cl)c(Cl)cc1Cl
Metric Name: Potency
Value Observed: inactive

Quick one: Potency of CCCCCCC[CH2][Sn]([Cl])([Cl])[CH2]CCCCCCC ?
inactive

Would you kindly repeat that for CN1CCc2cc3c(cc2C1O)OCO3 (stereo unspecified) ?
inactive

Another molecule to check: CCCCN(CCCC)C(=S)S
inactive

One more molecule: O=C1C(Cl)=C(Cl)C(=O)C(Cl)=C1Cl
60.9 µM (active)
